# Test system: Ran GTPase (GTP-bound) - importin-beta complex
# ASSAY OVERVIEW: disruptors of Ran-importin-beta complex formation – biochemical, FRET, CFP-Ran, YFP-importin-beta, homogeneous, primary screen (AID 2216);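 note: 0% = DMSO wells and 100% = Ran loaded with GDP instead of GTP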
# STUDY CONDITIONS: cell-free CFP-Ran/YFP-importin-beta FRET ratio; hits give high values; concentration not given here
Out of some 300,000 compounds screened, about 3,300 (1.1%) were called active. Another 6% or so got no clear call; they are omitted. For the sample, actives were picked, then their nearest neighbours and some compounds at random.
# thresholds on inhibition define classes: class 0 = under 4%, class 1 = from 4% up to 30%, class 2 = 30% and over

[[record]]
compound = "CCC(C)c1ccccc1N1CC(C(=O)N2CCN(S(=O)(=O)c3ccc(F)cc3)CC2)CC1=O (stereo not given)"
category = "class 0"

[[record]]
compound = "CC(C)Cn1c(N)c(C(=O)NCc2cccs2)c2nc3ccccc3nc21"
category = "class 2"

[[record]]
compound = "Cc1nc(-c2ccccc2)sc1C1(C)CC(c2cccnc2)=NO1 (stereo not given)"
category = "class 1"

[[record]]
compound = "N#CC1=C(N)Oc2cc(O)ccc2C1C1CCCCC1 (stereo not given)"
category = "class 2"

[[record]]
compound = "CC(=O)N1CCc2c(sc(NC(=O)CCS(=O)(=O)c3ccc(C)cc3)c2C(N)=O)C1"
category = "class 2"

[[record]]
compound = "CCCNC(=O)c1c(N)n(-c2ccc(S(N)(=O)=O)cc2)c2nc3ccccc3nc12"
category = "class 1"

[[record]]
compound = "CCCOc1ccc(Cn2ccnc2)cc1[N+](=O)[O-]"
category = "class 1"

[[record]]
compound = "COc1cc(C(=O)NCC(=O)N2CC=C(c3ccccc3)CC2)cc(OC)c1OC"
category = "class 0"

[[record]]
compound = "Cc1ccc(S(=O)(=O)CC(=O)Nc2sc(C)c(C)c2C(N)=O)cc1"
category = "class 0"

[[record]]
compound = "Cc1cc(S(=O)(=O)c2cc3ccc(O)c(C)c3oc2=O)ccc1F"
category = "class 2"


---

# Test system: Ran GTPase (GTP-bound) - importin-beta complex
# ASSAY OVERVIEW: disruptors of Ran-importin-beta complex formation – biochemical, FRET, CFP-Ran, YFP-importin-beta, homogeneous, primary screen (AID 2216);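 note: 0% = DMSO wells and 100% = Ran loaded with GDP instead of GTP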
# STUDY CONDITIONS: cell-free CFP-Ran/YFP-importin-beta FRET ratio; concentration not given here
Screen size: about 300,000 compounds; about 3,300 (1.1%) were called active. Another 6% or so got no clear call; they are omitted.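 How the source made its calls: active means more than half of the replicate wells show a fall in the fluorescence ratio signal beyond about 16% (limit read from the data, passing the limit was not always enough); inconclusive means exactly half of the replicate wells pass the set limit; inactive means fewer than half of replicates pass the limit.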 Only a selection was taken, and actives are over-represented in it overall.
Classes used: active, inactive

[[record]]
molecule = "COc1ccc(C(=O)Nc2cccc(NC(=O)c3ccc(OC)cc3OC)n2)c(OC)c1"
target_system = "Ran GTPase (GTP-bound) - importin-beta complex"
category = "inactive"

[[record]]
molecule = "CCN1CCN(C2CCCCC2NS(=O)(=O)c2ccc(Cl)cc2)CC1 (centres undefined)"
target_system = "Ran GTPase (GTP-bound) - importin-beta complex"
category = "inactive"

[[record]]
molecule = "C/C(=N\\N)c1c(-c2ccccc2)c2cc(Br)ccc2[nH]c1=O"
target_system = "Ran GTPase (GTP-bound) - importin-beta complex"
category = "active"

[[record]]
molecule = "COc1ccc(CCNC(=O)Cn2c(=O)n(CC3CCCO3)c(=O)c3ccccc32)cc1OC (centres undefined)"
target_system = "Ran GTPase (GTP-bound) - importin-beta complex"
category = "inactive"

[[record]]
molecule = "O=S(=O)(NC1CCCCC1N1CCC(O)CC1)c1ccc(Cl)cc1 (centres undefined)"
target_system = "Ran GTPase (GTP-bound) - importin-beta complex"
category = "active"

[[record]]
molecule = "N#Cc1c(N)sc2c1CCN(C(=O)OCc1ccccc1)C2"
target_system = "Ran GTPase (GTP-bound) - importin-beta complex"
category = "inactive"

[[record]]
molecule = "Cc1ccc(C(=O)NCCN2CCOCC2)cc1C"
target_system = "Ran GTPase (GTP-bound) - importin-beta complex"
category = "inactive"

[[record]]
molecule = "NC(=O)c1c(NC(=O)c2ccccc2)sc2c1CCCC2"
target_system = "Ran GTPase (GTP-bound) - importin-beta complex"
category = "inactive"

[[record]]
molecule = "COC(=O)C1=C(C)N(C)C(=S)NC1c1ccccc1 (centres undefined)"
target_system = "Ran GTPase (GTP-bound) - importin-beta complex"
category = "inactive"

[[record]]
molecule = "Cc1ccc(S(=O)(=O)n2cccc2CO)cc1"
target_system = "Ran GTPase (GTP-bound) - importin-beta complex"
category = "inactive"

[[record]]
molecule = "O=S(=O)(NC1CCCCC1N1CCCCC1)c1ccc(Cl)cc1 (centres undefined)"
target_system = "Ran GTPase (GTP-bound) - importin-beta complex"
category = "inactive"

[[record]]
molecule = "COc1ccccc1C(=O)Nc1ccccc1C(=O)Nc1ccccc1"
target_system = "Ran GTPase (GTP-bound) - importin-beta complex"
category = "inactive"

[[record]]
molecule = "Cc1ccc2nc3c(cc(C(=O)NCCc4ccccc4)c(=N)n3CC3CCCO3)c(=O)n2c1 (centres undefined)"
target_system = "Ran GTPase (GTP-bound) - importin-beta complex"
category = "active"

[[record]]
molecule = "CCCCCCc1cc2cc(-c3nnc(-c4ccccc4)o3)c(=O)oc2cc1O"
target_system = "Ran GTPase (GTP-bound) - importin-beta complex"
category = "active"

[[record]]
molecule = "COc1ccc(C2=NN(C(=O)CSc3nc(=O)n4ccc(C)cc4n3)C(c3ccc(C)cc3)C2)cc1 (centres undefined)"
target_system = "Ran GTPase (GTP-bound) - importin-beta complex"
category = "inactive"

[[record]]
molecule = "CCOC(=O)c1ccccc1NC(=O)c1c(N)n(C)c(=O)[nH]c1=O"
target_system = "Ran GTPase (GTP-bound) - importin-beta complex"
category = "inactive"

[[record]]
molecule = "Cc1cccn2c(=O)c3cc(C(=O)NCCN4CCOCC4)c(=N)n(Cc4cccnc4)c3nc12"
target_system = "Ran GTPase (GTP-bound) - importin-beta complex"
category = "active"

[[record]]
molecule = "COc1ccc(CCNC(=O)C(=O)NCC2CCNCC2)cc1OC"
target_system = "Ran GTPase (GTP-bound) - importin-beta complex"
category = "inactive"

[[record]]
molecule = "COc1ccc2oc(C(=O)NCc3ccco3)c(C)c2c1"
target_system = "Ran GTPase (GTP-bound) - importin-beta complex"
category = "inactive"

[[record]]
molecule = "Cc1c(C)n2c(SCC(=O)NC3CCCC3)nnc2[nH]c1=O"
target_system = "Ran GTPase (GTP-bound) - importin-beta complex"
category = "inactive"

[[record]]
molecule = "Cc1cccc(NC(=O)c2ccc(S(=O)(=O)N(C)CC3CCCO3)cc2)c1C (centres undefined)"
target_system = "Ran GTPase (GTP-bound) - importin-beta complex"
category = "inactive"

[[record]]
molecule = "CCCCCCc1ccc(O)cc1O"
target_system = "Ran GTPase (GTP-bound) - importin-beta complex"
category = "inactive"

[[record]]
molecule = "O=C(NC(Cc1ccccc1)C(=O)N1CCCC(C(F)(F)F)C1)c1ccccc1 (centres undefined)"
target_system = "Ran GTPase (GTP-bound) - importin-beta complex"
category = "inactive"

[[record]]
molecule = "Cc1ccc(NC(=O)COc2coc(CN3CCc4ccccc4C3)cc2=O)cc1Cl"
target_system = "Ran GTPase (GTP-bound) - importin-beta complex"
category = "inactive"

[[record]]
molecule = "CCN1CCN(CC(=O)Nc2sc3c(c2C#N)CCC3)CC1"
target_system = "Ran GTPase (GTP-bound) - importin-beta complex"
category = "inactive"

[[record]]
molecule = "COC(=O)c1cc(OC)c(OC)cc1NC(=O)CSc1ccc(C)cc1"
target_system = "Ran GTPase (GTP-bound) - importin-beta complex"
category = "inactive"

[[record]]
molecule = "NC1=NC(c2ccc([N+](=O)[O-])cc2)N(c2ccc(F)cc2)C(N)=N1 (centres undefined)"
target_system = "Ran GTPase (GTP-bound) - importin-beta complex"
category = "inactive"

[[record]]
molecule = "Cc1c(CC(=O)NCCCCCC(=O)O)c(=O)oc2cc3occ(-c4ccccc4)c3cc12"
target_system = "Ran GTPase (GTP-bound) - importin-beta complex"
category = "inactive"

[[record]]
molecule = "O=C(NCc1cccnc1)c1cc(S(=O)(=O)N2CCOCC2)c(Cl)cc1Cl"
target_system = "Ran GTPase (GTP-bound) - importin-beta complex"
category = "inactive"

[[record]]
molecule = "COc1ccc(C)cc1NC(=O)CSc1ccc(Cl)cc1"
target_system = "Ran GTPase (GTP-bound) - importin-beta complex"
category = "active"

[[record]]
molecule = "Cc1ccccc1NC(=O)Cn1c(=O)n(CC2CCCO2)c(=O)c2ccccc21 (centres undefined)"
target_system = "Ran GTPase (GTP-bound) - importin-beta complex"
category = "inactive"

[[record]]
molecule = "Cc1cccn2c(=O)c3cc(C(=O)NC4CCCCC4)sc3nc12"
target_system = "Ran GTPase (GTP-bound) - importin-beta complex"
category = "inactive"

[[record]]
molecule = "CS(=O)(=O)c1ccc(Cl)c(NC(=O)COC(=O)c2ncc(Cl)c(Cl)c2Cl)c1"
target_system = "Ran GTPase (GTP-bound) - importin-beta complex"
category = "inactive"

[[record]]
molecule = "CCOc1ccc(S(=O)(=O)NCCC(=O)N2CCCCCCC2)cc1"
target_system = "Ran GTPase (GTP-bound) - importin-beta complex"
category = "inactive"

[[record]]
molecule = "Cc1cccn2c(=O)c(/C=C(\\C#N)S(=O)(=O)c3ccc(Cl)cc3)c(N3CCC(C(N)=O)CC3)nc12"
target_system = "Ran GTPase (GTP-bound) - importin-beta complex"
category = "active"

[[record]]
molecule = "NC(=O)c1c(Nc2nc3c(F)cccc3s2)sc2c1CCCC2"
target_system = "Ran GTPase (GTP-bound) - importin-beta complex"
category = "active"

[[record]]
molecule = "COC(=O)C1=CN(Cc2ccc(OC)cc2)C=C(C(=O)OC)C1c1ccc(O)c(OC)c1"
target_system = "Ran GTPase (GTP-bound) - importin-beta complex"
category = "active"

[[record]]
molecule = "COCCN1C2=C(COC(C)(C)C2)C(=S)NC1c1ccccc1 (centres undefined)"
target_system = "Ran GTPase (GTP-bound) - importin-beta complex"
category = "active"

[[record]]
molecule = "COc1ccc(NC(=O)CN(C)C(=O)c2n[nH]c3ccccc23)cc1"
target_system = "Ran GTPase (GTP-bound) - importin-beta complex"
category = "inactive"

[[record]]
molecule = "COCCN1C(=O)N[C@@H](CCc2ccccc2)[C@H](C(C)=O)[C@H]1C"
target_system = "Ran GTPase (GTP-bound) - importin-beta complex"
category = "inactive"

[[record]]
molecule = "O=C(NNC(=O)c1ccc(-c2ccccc2)cc1)Nc1ccccc1"
target_system = "Ran GTPase (GTP-bound) - importin-beta complex"
category = "inactive"

[[record]]
molecule = "CC(C)(C)c1ccc(C(=O)NCc2ccco2)cc1"
target_system = "Ran GTPase (GTP-bound) - importin-beta complex"
category = "inactive"

[[record]]
molecule = "CCCCN(C(=O)c1ccc(S(=O)(=O)N2CCOCC2)cc1)C1CCS(=O)(=O)C1 (centres undefined)"
target_system = "Ran GTPase (GTP-bound) - importin-beta complex"
category = "inactive"

[[record]]
molecule = "O=C(c1ccc(NS(=O)(=O)c2ccc3[nH]c(=O)[nH]c3c2)cc1)N1CCCCC1"
target_system = "Ran GTPase (GTP-bound) - importin-beta complex"
category = "inactive"


Where do the numbers come from? From PubChem BioAssay AID2216.
